biological target: Transcription factor p65 (Homo sapiens); assay: Inhibition of NFkappa p65 isolated from nuclear extract of human HeLa cells by ELISA
Sequence (Q04206 whole entry): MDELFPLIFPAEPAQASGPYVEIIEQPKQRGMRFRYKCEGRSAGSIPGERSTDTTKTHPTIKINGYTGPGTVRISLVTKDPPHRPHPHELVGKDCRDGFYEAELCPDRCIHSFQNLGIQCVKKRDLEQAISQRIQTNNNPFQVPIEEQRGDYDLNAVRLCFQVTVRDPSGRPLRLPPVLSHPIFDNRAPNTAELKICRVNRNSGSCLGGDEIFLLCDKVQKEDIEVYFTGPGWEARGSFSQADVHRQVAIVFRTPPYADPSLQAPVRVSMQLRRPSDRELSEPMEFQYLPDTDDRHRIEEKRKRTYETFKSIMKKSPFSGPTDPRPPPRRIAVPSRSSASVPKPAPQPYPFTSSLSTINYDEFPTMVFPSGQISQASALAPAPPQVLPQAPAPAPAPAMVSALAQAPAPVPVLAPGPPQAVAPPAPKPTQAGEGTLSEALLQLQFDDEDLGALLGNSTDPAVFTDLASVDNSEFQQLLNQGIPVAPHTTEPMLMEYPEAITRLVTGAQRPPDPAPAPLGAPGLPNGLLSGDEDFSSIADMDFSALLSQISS
pIC50: −log10 of the molar value.
parameter: pIC50

Solved cases below.
molecule	pIC50
COc1cc(O)c2c(c1)/C=C/C[C@H](O)[C@H](O)[C@H](O)/C=C/C[C@H](C)OC2=O	< 4.30
COc1cc(O)c2c(c1)/C=C/C[C@H](O)[C@H](O)C(=O)CCC[C@H](C)OC2=O	< 4.30

// moving on: another record for pIC50
Inquiry: Please look at this molecule and report its pIC50: COc1cc(O)c2c(c1)/C=C/C[C@H](O)[C@H](O)[C@@H](O)/C=C/C[C@H](C)OC2=O [ZEAENOL]
Reply text: < 4.30

Where do these numbers come from? They come from ChEMBL document CHEMBL1800017.
